Data provenance: patent US20120136033A1

molecular target: Akt PH domain (PH123, 1-123 a.a. N-terminal fragment of human Akt1) (Homo sapiens, UniProt P31749); construct: recombinant GST fusion proteins containing 1-123 a.a; N-terminal fragment of human Akt1 (PH 123); assay: fluorescence polarization (FP) PIP3/Akt PH domain binding assay; settings: 15 nM TMR-PIP3, 5 μM GST-PH domain of Akt, 30 min, read-out: IC50, disruption of PIP3/Akt PH domain binding
Sequence (P31749 1-123): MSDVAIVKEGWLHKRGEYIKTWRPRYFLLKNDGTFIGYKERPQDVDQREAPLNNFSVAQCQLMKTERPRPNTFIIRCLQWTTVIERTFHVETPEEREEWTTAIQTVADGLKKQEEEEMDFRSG
This listing pairs compounds with measured IC50.
measurement_type: IC50

{"columns": ["compound_smiles", "test_value"],
 "data": [
  ["O=C1NC(=S)S/C1=C\\c1cc(O)c([N+](=O)[O-])cc1Cc1ccccc1", "31.5 µM"],
  ["O=C(NC(=S)Nc1cc([N+](=O)[O-])cc(Cl)c1O)c1ccccc1", "28.1 µM"]
]}
